As shown below, each of these binders has a reported Kd(wt)/Kd(mut) value.
- target or system: T1, VEGF(8-109) (UniProt P15692 214-315)
- T1 construct: range 8-109; Covalently coupled to the BIACORE chip
- T1 sequence (looked up): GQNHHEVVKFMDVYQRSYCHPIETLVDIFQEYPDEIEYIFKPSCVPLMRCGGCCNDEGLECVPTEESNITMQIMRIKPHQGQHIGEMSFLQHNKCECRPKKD
- method description: SPR (BIACORE-2000), ratio against Y0192
Answer with a number only, understood to be in fold.

• Y0313-2 (Fab, V domains shown, Combines the CDR H3 insertion of Y0239-19 with T28D/N31H; Prepared as Fab; also called CDR combination variant Y0313-2; Insert-Fab Y0313-2) VH: EVQLVESGGGLVQPGGSLRLSCAASGYDFTHYGMNWVRQAPGKGLEWVGWINTYTGEPTYAADFKRRFTFSLDTSKSTAYLQMNSLRAEDTAVYYCAKYPHYYVNERKSHWYFDVWGQGTL VL: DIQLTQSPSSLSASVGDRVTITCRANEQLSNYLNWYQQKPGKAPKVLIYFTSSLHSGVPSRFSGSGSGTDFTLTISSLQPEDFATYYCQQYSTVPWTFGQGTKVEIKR = 8
• Y0239-2 (Fab, V domains shown, Clone from library YC-95 on pY0192; Expressed as Fab; The limits of the flanking pieces are my reading) VH: EVQLVESGGGLVQPGGSLRLSCAASGYTFTNYGMNWVRQAPGKGLEWVGWINTYTGEPTYAADFKRRFTFSLDTSKSTAYLQMNSLRAEDTAVYYCAKYPHYYKNDKSSHWYFDVWGQGTL VL: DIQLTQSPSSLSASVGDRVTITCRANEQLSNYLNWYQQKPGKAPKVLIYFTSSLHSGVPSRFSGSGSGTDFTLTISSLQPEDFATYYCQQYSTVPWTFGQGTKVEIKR = 0.6
• Y0240-1 (Fab, V domains shown, Clone from library YC-98 (G104 and S105 replaced by a random peptide) on pY0192; Expressed as Fab; The limits of the flanking pieces are my reading) VH: EVQLVESGGGLVQPGGSLRLSCAASGYTFTNYGMNWVRQAPGKGLEWVGWINTYTGEPTYAADFKRRFTFSLDTSKSTAYLQMNSLRAEDTAVYYCAKYPHYYLTDHKSHWYFDVWGQGTL VL: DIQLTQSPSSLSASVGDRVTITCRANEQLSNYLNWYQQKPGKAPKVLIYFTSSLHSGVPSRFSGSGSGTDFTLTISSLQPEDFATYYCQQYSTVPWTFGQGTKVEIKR = 5.8

Query: Report measured Kd(wt)/Kd(mut); entry is Y0241-7 (Fab, V domains shown, Clone from library YC-86 built on pY0192, expressed as Fab; This is not written as a substitution) VH: EVQLVESGGGLVQPGGSLRLSCAASGYDWTNYGMNWVRQAPGKGLEWVGWINTYTGEPTYAADFKRRFTFSLDTSKSTAYLQMNSLRAEDTAVYYCAKYPHYYGSSHWYFDVWGQGTL VL: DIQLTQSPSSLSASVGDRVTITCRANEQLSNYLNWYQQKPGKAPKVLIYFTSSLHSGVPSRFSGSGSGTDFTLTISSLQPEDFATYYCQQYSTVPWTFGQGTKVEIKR
Reply: 1

Query: Report measured Kd(wt)/Kd(mut); entry is Y0241-6 (Fab, V domains shown, Clone from library YC-86 built on pY0192, expressed as Fab) VH: EVQLVESGGGLVQPGGSLRLSCAASGYDYTNYGMNWVRQAPGKGLEWVGWINTYTGEPTYAADFKRRFTFSLDTSKSTAYLQMNSLRAEDTAVYYCAKYPHYYGSSHWYFDVWGQGTL VL: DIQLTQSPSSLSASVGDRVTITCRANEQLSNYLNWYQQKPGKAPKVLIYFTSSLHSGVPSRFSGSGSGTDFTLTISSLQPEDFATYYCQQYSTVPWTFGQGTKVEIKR
Reply: 1.1

Query: Report measured Kd(wt)/Kd(mut); entry is Y0239-9 (Fab, V domains shown, Clone from library YC-95 on pY0192; Expressed as Fab; The limits of the flanking pieces are my reading) VH: EVQLVESGGGLVQPGGSLRLSCAASGYTFTNYGMNWVRQAPGKGLEWVGWINTYTGEPTYAADFKRRFTFSLDTSKSTAYLQMNSLRAEDTAVYYCAKYPHYYLGESSHWYFDVWGQGTL VL: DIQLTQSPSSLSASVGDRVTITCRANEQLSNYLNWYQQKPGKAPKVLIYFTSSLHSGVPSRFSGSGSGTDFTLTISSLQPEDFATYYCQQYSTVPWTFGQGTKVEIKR
Reply: 6

Query: Report measured Kd(wt)/Kd(mut); entry is Y0239-12 (Fab, V domains shown, Clone from library YC-98 on pY0192; Expressed as Fab; The limits of the flanking pieces are my reading) VH: EVQLVESGGGLVQPGGSLRLSCAASGYTFTNYGMNWVRQAPGKGLEWVGWINTYTGEPTYAADFKRRFTFSLDTSKSTAYLQMNSLRAEDTAVYYCAKYPHYYAHEKKSHWYFDVWGQGTL VL: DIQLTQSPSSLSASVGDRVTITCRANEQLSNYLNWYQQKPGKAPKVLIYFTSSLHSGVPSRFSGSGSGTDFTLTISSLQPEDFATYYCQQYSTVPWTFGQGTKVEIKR
Reply: 4.8

Query: Report measured Kd(wt)/Kd(mut); entry is Y0239-8 (Fab, V domains shown, Clone from library YC-95 (G104 replaced by a random peptide) on pY0192; Expressed as Fab; The limits of the flanking pieces are my reading) VH: EVQLVESGGGLVQPGGSLRLSCAASGYTFTNYGMNWVRQAPGKGLEWVGWINTYTGEPTYAADFKRRFTFSLDTSKSTAYLQMNSLRAEDTAVYYCAKYPHYYLRDGRSSHWYFDVWGQGTL VL: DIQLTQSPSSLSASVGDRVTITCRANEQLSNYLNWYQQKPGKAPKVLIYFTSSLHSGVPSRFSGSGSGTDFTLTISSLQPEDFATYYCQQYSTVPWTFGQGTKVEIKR
Reply: 5.8

Query: Report measured Kd(wt)/Kd(mut); entry is Y0242-1 (Fab, V domains shown, Clone from library YC-90; Expressed as Fab) VH: EVQLVESGGGLVQPGGSLRLSCAASGYTFTNYGMNWVRQAPGKGLEWVGWINTWTGEPTYAADFKRRFTFSLDTSKSTAYLQMNSLRAEDTAVYYCAKYPHYYGSSHWYFDVWGQGTL VL: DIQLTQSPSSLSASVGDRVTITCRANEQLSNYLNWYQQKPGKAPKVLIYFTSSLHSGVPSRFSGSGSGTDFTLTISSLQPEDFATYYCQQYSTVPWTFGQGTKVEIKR
Reply: 1.6

Query: Report measured Kd(wt)/Kd(mut); entry is Y0239-19 (Fab, V domains shown, Expressed as Fab; also called insertion variant Y0239-19; VNERK motif variant) VH: EVQLVESGGGLVQPGGSLRLSCAASGYTFTNYGMNWVRQAPGKGLEWVGWINTYTGEPTYAADFKRRFTFSLDTSKSTAYLQMNSLRAEDTAVYYCAKYPHYYVNERKSHWYFDVWGQGTL VL: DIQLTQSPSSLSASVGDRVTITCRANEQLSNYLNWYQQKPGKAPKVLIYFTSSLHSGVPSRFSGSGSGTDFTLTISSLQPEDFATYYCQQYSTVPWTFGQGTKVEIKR
Reply: 9.7

Query: Report measured Kd(wt)/Kd(mut); entry is Y0261-6 (Fab, V domains shown, Clone from library YC-98 on pY0192; Expressed as Fab; The limits of the flanking pieces are my reading) VH: EVQLVESGGGLVQPGGSLRLSCAASGYTFTNYGMNWVRQAPGKGLEWVGWINTYTGEPTYAADFKRRFTFSLDTSKSTAYLQMNSLRAEDTAVYYCAKYPHYYLKDKKSHWYFDVWGQGTL VL: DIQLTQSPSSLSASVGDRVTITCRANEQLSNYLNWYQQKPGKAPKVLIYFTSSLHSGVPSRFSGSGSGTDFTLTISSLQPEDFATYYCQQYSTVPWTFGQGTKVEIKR
Reply: 5
